- Test system: soybean (Glycine max Merr.)
- test_summary: Test Example 1: foliar treatment, growth inhibition rate on 14th day
- Type: in vivo
- condition_summary: active ingredient amount 31 g/ha, 14th day after application
Classify by measured Growth inhibition rate (%) Soybean: class 1 if it is equal to or exceeds 10%, class 0 if it is smaller.

Worked set:
>  <compound>
Cc1ccc(Oc2cnc3cc(Cl)ccc3n2)cc1-c1c(O)c(C)nn(C)c1=O [Compound 2-7]

>  <target_or_test_system>
soybean (Glycine max Merr.)

>  <class_name>
class 0

$$$$
>  <compound>
CCCCC(=O)Oc1c(C)nn(C)c(=O)c1-c1cc(Oc2cnc3cc(Cl)ccc3n2)ccc1C

>  <target_or_test_system>
soybean (Glycine max Merr.)

>  <class_name>
class 1

$$$$
>  <compound>
Cc1ccc(Oc2ncc(C(F)(F)F)cc2Cl)cc1-c1c(O)c(C)nn(C)c1=O

>  <target_or_test_system>
soybean (Glycine max Merr.)

>  <class_name>
class 0

$$$$
>  <compound>
COC(=O)OC(C)Oc1c(C)nn(C)c(=O)c1-c1cc(Oc2ncc(C(F)(F)F)cc2Cl)c(C)cc1C (stereo not drawn)

>  <target_or_test_system>
soybean (Glycine max Merr.)

>  <class_name>
class 0

$$$$
>  <compound>
CC(=O)Oc1c(C)nn(C)c(=O)c1-c1cc(N(C)c2ncc(C(F)(F)F)cc2Cl)ccc1C

>  <target_or_test_system>
soybean (Glycine max Merr.)

>  <class_name>
class 1

$$$$

Query block: Evaluate `Cc1ccc(Oc2ncc(C(F)(F)F)cc2Cl)c(C)c1-c1c(O)c(C)nn(C)c1=O` : Growth inhibition rate (%) Soybean at minimum 10%?
Result block: class 0

Query block: Please give the result for `Cc1ccc(Oc2nc3ccc(Br)cc3o2)cc1-c1c(O)cnn(C)c1=O` too.
Result block: class 0

Query block: Please give the result for CCOC(=O)OC(C)Oc1c(C)nn(C)c(=O)c1-c1cc(Oc2ncc(C(F)(F)F)cc2Cl)ccc1C (stereo not drawn) too.
Result block: class 0

Query block: Please give the result for `Cc1ccc(Oc2cnc3cc(Cl)ccc3n2)cc1-c1c(OC(=O)N2CCOCC2)c(C)nn(C)c1=O` too.
Result block: class 0

Query block: Please give the result for `CCn1nc(C)c(O)c(-c2cc(Oc3ncc(C(F)(F)F)cc3Cl)ccc2C)c1=O` too.
Result block: class 0

Query block: Please give the result for `CC(=O)Oc1c(C)nn(C)c(=O)c1-c1cc(Oc2ncc(Cl)cc2F)ccc1C` too.
Result block: class 0

Query block: Please give the result for COC(=O)OC(C)Oc1c(C)nn(C)c(=O)c1-c1cc(Oc2ncc(C(F)(F)F)cc2Cl)ccc1C (stereo not drawn) too.
Result block: class 0

Query block: Please give the result for `CCc1ccc(Sc2ncc(C(F)(F)F)cc2Cl)cc1-c1c(O)c(C)nn(C)c1=O` too.
Result block: class 1

Query block: Please give the result for `CCc1nn(C)c(=O)c(-c2cc(Oc3cnc4cc(Cl)ccc4n3)ccc2C)c1O` too.
Result block: class 1

Hey, just so you know, these numbers are from patent US10870638B2.
